- Tested on: hypoxia-inducible endogenous VEGF expression
- RUN_DESCRIPTION: Hypoxia-inducible endogenous VEGF expression ELISA in HeLa cells, dose-response EC50 (Table 3)
- Format: cell-based, human
- EXPERIMENTAL_SETUP: Homo sapiens, HeLa, read-out: ELISA EC50 μM
PROPERTY: EC50

Lab note: COCCCNCCCCCCOc1ccc(C2c3[nH]c4ccc(Cl)cc4c3CCN2C(=O)Oc2ccc(F)cc2)cc1 (stereo not shown) gave EC50 of < 0.008 µM

// recorded EC50 for COc1ccc(OC(=O)N2CCc3c([nH]c4ccc(Cl)cc34)C2c2ccc(OCCCN3CCOCC3)c(OC)c2)cc1 (stereo not shown) : 0.008 to 0.04 µM

Value of measured EC50 for the entry CC(C)NCC(O)COc1ccc(C2c3[nH]c4ccc(Cl)cc4c3CCN2C(=O)Oc2ccc(Cl)cc2)cc1 (stereo not shown) : 0.04 to 0.2 µM

* * *

- Tested on: hypoxia-inducible endogenous VEGF expression
- RUN_DESCRIPTION: Hypoxia-inducible endogenous VEGF expression ELISA in HeLa cells, dose-response EC50 (Table 3)
- Format: cell-based, human
- EXPERIMENTAL_SETUP: Homo sapiens, HeLa, read-out: ELISA EC50 μM
PROPERTY: EC50

Please review the following examples before continuing.
COCCN(C)CCCOc1cccc(C2c3[nH]c4ccc(Cl)cc4c3CCN2C(=O)Oc2ccc(F)cc2)c1 (stereo not shown) [Compound 1121] = > 1 µM
O=C(OCCN1CCOCC1)N1CCC(Oc2ccc([C@H]3c4[nH]c5ccc(Cl)cc5c4CCN3C(=O)Oc3ccc(Cl)cc3)cc2)CC1 [Compound 1693] = < 0.008 µM
COCCN(CCCOc1cccc(C2c3[nH]c4ccc(Cl)cc4c3CCN2C(=O)Oc2ccc(F)cc2)c1)CCOC (stereo not shown) [Compound 1119] = 0.04 to 0.2 µM
CN1CCCC(COc2ccc(C3c4[nH]c5ccc(Cl)cc5c4CCN3C(=O)Oc3ccc(Cl)cc3)cc2)C1 (stereo not shown) [Compound 966] = 0.008 to 0.04 µM
CN1CCN(CCCCOc2ccc(C3c4[nH]c5ccc(Cl)cc5c4CCN3C(=O)Oc3ccc(Cl)cc3)cc2)CC1 (stereo not shown) [Compound 704] = 0.04 to 0.2 µM
CC(C)NCCCCCCOc1ccc(C2c3[nH]c4ccc(Cl)cc4c3CCN2C(=O)Oc2ccc(Cl)cc2)cc1 (stereo not shown) [Compound 784] = < 0.008 µM

Turning to the following compound.
response.value for O=C(Oc1ccc(Cl)cc1)N1CCc2c([nH]c3ccc(Cl)cc23)C1c1ccc(OCCCCCCNCCCn2ccnc2)cc1 (stereo not shown) [Compound 789] (field: EC50) = 0.04 to 0.2 µM

* * *

- System: soluble VEGF121 and VEGF165 isoforms
- RUN_DESCRIPTION: Inhibition of soluble VEGF production in human tumor cell lines (ELISA, EC50)
- Type: cell-based
- EXPERIMENTAL_SETUP: SNU1, Gastric, SNU-1, 48 hours
PROPERTY: EC50 (nM)
# output: bare number, implied unit nM

EC50 recorded for this molecule, COc1ccc(C2c3[nH]c4ccc(Cl)cc4c3CCN2C(=O)Oc2ccc(Cl)cc2)cc1 (racemic) , is 0.1

* * *

Listing of entries alongside the reported EC50.
- System: hypoxia-inducible endogenous VEGF expression
- RUN_DESCRIPTION: Hypoxia-inducible endogenous VEGF expression ELISA in HeLa cells, dose-response EC50 (Table 3)
- Format: cell-based, human
- EXPERIMENTAL_SETUP: Homo sapiens; HeLa cells, hypoxic conditions (1% O2), VEGF ELISA of conditioned media; read-out: ELISA EC50

EC50 reported for this molecule COc1ccc(OC(=O)N2CCc3c([nH]c4ccc(Cl)cc34)[C@@H]2c2ccc(OCC(C)(CO)CO)cc2)cc1 [Compound 1337] : 8 to 40 nM

Per the record, CCOC(=O)NCC(O)CCOc1ccc([C@H]2c3[nH]c4ccc(Cl)cc4c3CCN2C(=O)Oc2ccc(Cl)cc2)cc1 (stereo partly shown) [Compound 1636] has EC50 of < 8 nM

Recorded EC50 (molecule CCC(CO)(CO)COc1ccc(C2c3[nH]c4ccc(Br)cc4c3CCN2C(=O)Oc2ccc(F)cc2)cc1 (stereo not shown) [Compound 1357] ): < 8 nM

Sample CC(=O)Oc1ccc([C@H]2c3[nH]c4ccc(Cl)cc4c3CCN2C(=O)Oc2ccc(Cl)cc2)cc1 [Compound 1538] ; EC50 observed: < 8 nM

Just so you know, measured EC50 for CC(C)C(=O)NCC(O)COc1ccc(C2c3[nH]c4ccc(Cl)cc4c3CCN2C(=O)Oc2ccc(Cl)cc2)cc1 (stereo not shown) [Compound 1559] came out at 8 to 40 nM

# molecule Cc1cnc(C)c(Oc2ccc([C@H]3c4[nH]c5ccc(Cl)cc5c4CCN3C(=O)Oc3ccc(Cl)cc3)cc2)n1 [Compound 1658] ; its EC50 = < 8 nM

So, O=C(Oc1ccc(Cl)cc1)N1CCc2c([nH]c3ccc(Cl)cc23)[C@@H]1c1ccc(Oc2ccc3ccccc3n2)cc1 [Compound 1572] ? Its EC50 was < 8 nM
